System: His-PTB (polypyrimidine tract-binding protein, pETPTB), P26599-1
Test: EMSA
READOUT TYPE: Kd (nM)
Reply numerically in nM, unit not repeated.

Q: // query Kd value for entry GGGCCAGACACUGAUUAUAUGGUUCAUAUGGGUAAUUACCUUCCCUAGGCUAAGGACUAACUGGUAUAUACCAUAAUUAAA [SHFV 3'(+)NCR RNA]
Ans: 7
